Reference source for all entries: patent EP4768505A1

# test system: BSA (UniProt P02769)
# Sequence (P02769 25-607 limits assumed): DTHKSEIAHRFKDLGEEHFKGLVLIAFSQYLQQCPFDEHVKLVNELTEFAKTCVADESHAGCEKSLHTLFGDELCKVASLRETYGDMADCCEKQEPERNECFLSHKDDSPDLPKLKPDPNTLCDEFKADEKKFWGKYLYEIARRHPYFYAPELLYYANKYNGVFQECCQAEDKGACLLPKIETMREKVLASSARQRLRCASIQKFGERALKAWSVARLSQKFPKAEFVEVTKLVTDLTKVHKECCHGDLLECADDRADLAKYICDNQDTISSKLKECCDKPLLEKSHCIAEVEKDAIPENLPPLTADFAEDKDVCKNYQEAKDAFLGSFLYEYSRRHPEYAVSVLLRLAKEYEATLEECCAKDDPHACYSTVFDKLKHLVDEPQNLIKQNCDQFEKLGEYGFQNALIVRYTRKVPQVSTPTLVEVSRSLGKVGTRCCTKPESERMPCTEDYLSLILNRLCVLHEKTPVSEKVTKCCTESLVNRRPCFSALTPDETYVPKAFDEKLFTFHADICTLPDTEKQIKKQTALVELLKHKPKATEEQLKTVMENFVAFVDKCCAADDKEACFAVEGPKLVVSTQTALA
# method notes: ELISA on coated BSA control, anti-myc detection; 20ng antibody added
metric name: OD450 nm

Worked cases, OD450 nm given:
Inquiry: Can you look up the measured OD450 nm of anti-CD79B single-domain antibody JYB11 (VHH, Alpaca VHH from a phage library; ELISA detected with an anti-myc antibody; a myc tag is not described; not shown: His-tag protein at the C-terminal end) VHH: DVQLQESGGGLVQPGGSLSLSCAASMSSPSLWVRAWHRQAPGKQRELVAAINSDGQTMYADSVKGRFTISRDNAKTLVSLQMDSLKPEDTAVYYCNVVTPRGQQYWGQGTQVTVSS for me?
Reply text: 0.0471 OD450

Inquiry: Can you look up the measured OD450 nm of anti-CD79B single-domain antibody JYB14 (VHH, Alpaca VHH from a phage library; ELISA detected with an anti-myc antibody; a myc tag is not described; not shown: His-tag protein at the C-terminal end) VHH: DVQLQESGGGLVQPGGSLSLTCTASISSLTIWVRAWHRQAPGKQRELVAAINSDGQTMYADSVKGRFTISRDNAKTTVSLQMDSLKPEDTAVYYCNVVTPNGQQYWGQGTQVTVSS for me?
Reply text: 0.0476 OD450

Turning now to a further binder:
Inquiry: Can you look up the measured OD450 nm of anti-CD79B single-domain antibody JYB4 (VHH, Alpaca VHH from a phage library; not shown: His-tag protein at the C-terminal end) VHH: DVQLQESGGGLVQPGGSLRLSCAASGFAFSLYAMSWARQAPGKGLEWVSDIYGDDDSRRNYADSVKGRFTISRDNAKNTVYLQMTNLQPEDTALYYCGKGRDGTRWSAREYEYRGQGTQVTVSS for me?
Reply text: 0.0499 OD450
